- Tested on: Bacillus globigii spores
- Type: cell-based
- protocol-conditions: relative germination; phase change monitored at 450 nm over 10 minutes; 3.6×10^8 spores per ml in 20 mM potassium phosphate buffer (pH 7.4)
Overview of reported Percent germination across a group of compounds:
metric-name: Percent germination (%)

                                   compound  numeric_readout
0  O=C[C@H](O)[C@@H](O)[C@H](O)[C@H](O)CO [20 mM D-glucose, D-glucose]              7.0
1  NC(=O)C[C@H](N)C(=O)O [20 mM L-asparagine, L-asparagine]              5.2
2  C[C@H](N)C(=O)O [20 mM L-alanine, L-alanine]             50.1
3  O=C(O)c1cccc(C(=O)O)n1 [20 mM DPA, pyridine-2,6-dicarboxylic acid]              7.3
